experimental_target: Cbl-b (truncated variant, UniProt number Q13191) (Homo sapiens, UniProt Q13191)
Construct: made in house
Sequence (Q13191 36-427): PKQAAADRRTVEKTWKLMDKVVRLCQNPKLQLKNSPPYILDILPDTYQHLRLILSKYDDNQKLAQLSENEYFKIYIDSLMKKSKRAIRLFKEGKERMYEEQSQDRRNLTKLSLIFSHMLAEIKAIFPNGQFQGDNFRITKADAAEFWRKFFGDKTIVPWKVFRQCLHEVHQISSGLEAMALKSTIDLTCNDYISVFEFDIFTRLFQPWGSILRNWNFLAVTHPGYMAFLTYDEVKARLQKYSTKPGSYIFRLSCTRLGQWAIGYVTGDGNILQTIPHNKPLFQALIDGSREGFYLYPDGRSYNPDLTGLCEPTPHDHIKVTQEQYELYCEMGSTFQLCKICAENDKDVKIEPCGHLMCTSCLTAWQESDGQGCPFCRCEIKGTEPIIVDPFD
test_name: Cbl-b activity assay (TR-FRET, interaction of Cbl-b with UbcH5B-Ub)
Format: biochemical
experimental_context: Biological Example 1A; low or high conditions not stated; read-out: IC50 values in the Cbl-b inhibition assay of Biological Example 1A
outcome_measure: IC50

1. C[C@H](Cc1nncn1C)c1cccc(NC(=O)N2CCc3cccnc32)c1	100 to 1000 nM
2. C[C@H](Sc1nncn1C)c1cccc(-n2ncc(-c3ccccc3)n2)c1	100 to 1000 nM
3. Cn1cnnc1CC1(c2cccc(N3CC4C(C(F)(F)F)CCN4C3=O)c2)COC1 (centres unmarked)	1000 to 5000 nM
4. C[C@H](Cc1nncn1C)c1cccc(NC(=O)N2CCC(C(=O)O)(C(F)(F)F)C2)c1 (some centres unmarked)	1000 to 5000 nM

Recorded IC50 for "C[C@H](Sc1nncn1C)c1cccc(-n2cc(-c3ccc(Cl)cc3)nn2)c1" , please?
1000 to 5000 nM

====

The reader will find reported IC50 values listed item by item below.
experimental_target: Cbl-b (truncated variant, UniProt number Q13191) (Homo sapiens, UniProt Q13191)
Construct: made in house
test_name: Cbl-b activity assay (TR-FRET, interaction of Cbl-b with UbcH5B-Ub)
Type: biochemical
experimental_context: Biological Example 1A; low or high conditions not stated; read-out: IC50 values in the Cbl-b inhibition assay of Biological Example 1A

Reference set, count: 2
1) CNC(=O)c1ccc(-c2cnn(-c3cccc([C@H](C)Sc4nncn4C)c3)n2)cc1 [Example 82]	1 to 5 µM
2) COC(=O)C1(C(F)(F)F)CCN(C(=O)Nc2cccc([C@H](C)Cc3nncn3C)c2)C1 (stereo partly drawn) [Example 11]	1 to 5 µM

Could you now look at the following compound, please?
Query (compound): CC(Sc1nncn1C)c1ccnc(-c2cc(-c3ccccc3)no2)c1 (stereo not drawn) [Example 71] ; field requested: IC50
≥ 5 µM

====

experimental_target: Cbl-b (truncated variant, UniProt number Q13191) (Homo sapiens, UniProt Q13191)
Construct: made in house
test_name: Cbl-b activity assay (TR-FRET, interaction of Cbl-b with UbcH5B-Ub)
Assay type: biochemical
experimental_context: Biological Example 1A; low or high conditions not stated; read-out: IC50 values in the Cbl-b inhibition assay of Biological Example 1A
outcome_measure: IC50

Example entries begin here.
1. C[C@H](Cc1nncn1C)c1ccnc(C(=O)Nc2cccc(C(F)(F)F)n2)c1	100 to 1000 nM
2. C[C@H](Sc1nncn1C)c1cccc(-n2ncc(-c3ccc(Cl)cc3)n2)c1	1000 to 5000 nM
3. C[C@H](Sc1nncn1C)c1cccc(-n2cc(-c3cccc(CO)c3)nn2)c1	≥ 5000 nM

What measured IC50 goes with "C[C@H](Sc1nncn1C)c1cccc(-n2ncc(-c3ccc(CO)cc3)n2)c1" ?
1000 to 5000 nM

For "Cc1cccc(NC(=O)c2cccc(C3(Cc4nncn4C)COC3)c2)n1" then?
≥ 5000 nM

Same thing, different molecule: "C[C@H](Cc1nncn1C)c1cccc(NC(=O)N2CCOc3cccnc32)c1"
< 100 nM

Also need "C[C@H](Cc1nncn1C)c1cccc(NC(=O)N2CCCc3cccnc32)c1" , thanks.
100 to 1000 nM

# repeat for "C[C@H](Sc1nncn1C)c1cccc(-c2cc(-c3ccccc3)no2)c1"
1000 to 5000 nM

And CC(Sc1nncn1C)c1cccc(C(=O)Nc2cccc(C(F)(F)F)n2)c1 (stereo not drawn) ?
≥ 5000 nM
